- Organism: Rattus norvegicus
- methodSummary: Activity of rat glutaryl-co A dehydrogenase expressed in Escherichia coli BL21
measuredParameter: Km (µM)

Field: example entries. Status: answers known.
CCCCCCCCCC(=O)SCCNC(=O)CCNC(=O)C(O)C(C)(C)COP(=O)(O)OP(=O)(O)OC[C@H]1O[C@@H](n2cnc3c(N)ncnc32)[C@H](O)[C@@H]1OP(=O)(O)O (stereo not given in full); 54
CCCC/C=C\CC(=O)SCCNC(=O)CCNC(=O)C(O)C(C)(C)COP(=O)(O)OP(=O)(O)OC[C@H]1O[C@@H](n2cnc3c(N)ncnc32)[C@H](O)[C@@H]1OP(=O)(O)O (stereo not given in full); 66

(I) CC/C=C/CC(=O)SCCNC(=O)CCNC(=O)C(O)C(C)(C)COP(=O)(O)OP(=O)(O)OC[C@H]1O[C@@H](n2cnc3c(N)ncnc32)[C@H](O)[C@@H]1OP(=O)(O)O (stereo not given in full)
(II) CCCCCC/C=C/CC(=O)SCCNC(=O)CCNC(=O)C(O)C(C)(C)COP(=O)(O)OP(=O)(O)OC[C@H]1O[C@@H](n2cnc3c(N)ncnc32)[C@H](O)[C@@H]1OP(=O)(O)O (stereo not given in full)
(III) CCCCCCCC(=O)SCCNC(=O)CCNC(=O)C(O)C(C)(C)COP(=O)(O)OP(=O)(O)OC[C@H]1O[C@@H](n2cnc3c(N)ncnc32)[C@H](O)[C@@H]1OP(=O)(O)O (stereo not given in full)
Q: Put the items in order so that reported Km rises from first to last. Give the labels in the order specified.
Result: III, I, II
(III: 28 µM, I: 51 µM, II: 74 µM)

----------
- methodSummary: Inhibition of rat glutaryl-co A dehydrogenase by spectrophotometry
measuredParameter: Ki (µM)

(I) CCCCCC#CC(=O)SCCNC(=O)CCNC(=O)C(O)C(C)(C)COP(=O)(O)OP(=O)(O)OC[C@H]1O[C@@H](n2cnc3c(N)ncnc32)[C@H](O)[C@@H]1OP(=O)(O)O (some centres not stated)
(II) CCC/C=C/C#CC(=O)SCCNC(=O)CCNC(=O)C(O)C(C)(C)COP(=O)(O)OP(=O)(O)OC[C@H]1O[C@@H](n2cnc3c(N)ncnc32)[C@H](O)[C@@H]1OP(=O)(O)O (some centres not stated)
Q: Pick the one with the larger Ki: I vs II Answer by stating the label of the chosen item.
Result: II
(II: 43 µM, I: 18 µM)

----------
- Species on record: Rattus norvegicus
- methodSummary: Activity of rat glutaryl-co A dehydrogenase expressed in Escherichia coli BL21
measuredParameter: Vmax (nmol/mg/min)

CCCC/C=C/CC(=O)SCCNC(=O)CCNC(=O)C(O)C(C)(C)COP(=O)(O)OP(=O)(O)OC[C@H]1O[C@@H](n2cnc3c(N)ncnc32)[C@H](O)[C@@H]1OP(=O)(O)O (stereo partly specified); 56

(a) CCCCCC/C=C/CC(=O)SCCNC(=O)CCNC(=O)C(O)C(C)(C)COP(=O)(O)OP(=O)(O)OC[C@H]1O[C@@H](n2cnc3c(N)ncnc32)[C@H](O)[C@@H]1OP(=O)(O)O (stereo partly specified)
(b) CC/C=C/CC(=O)SCCNC(=O)CCNC(=O)C(O)C(C)(C)COP(=O)(O)OP(=O)(O)OC[C@H]1O[C@@H](n2cnc3c(N)ncnc32)[C@H](O)[C@@H]1OP(=O)(O)O (stereo partly specified)
Q: Identify the item whose Vmax is the smaller number: a or b Answer by stating the label of the chosen item.
Result: a
(a: 27 nmol/mg/min, b: 136 nmol/mg/min)

(P) CCCCCC/C=C\CC(=O)SCCNC(=O)CCNC(=O)C(O)C(C)(C)COP(=O)(O)OP(=O)(O)OC[C@H]1O[C@@H](n2cnc3c(N)ncnc32)[C@H](O)[C@@H]1OP(=O)(O)O (stereo partly specified)
(Q) CCCC/C=C\CC(=O)SCCNC(=O)CCNC(=O)C(O)C(C)(C)COP(=O)(O)OP(=O)(O)OC[C@H]1O[C@@H](n2cnc3c(N)ncnc32)[C@H](O)[C@@H]1OP(=O)(O)O (stereo partly specified)
Q: Pick the one with the larger Vmax: P vs Q Answer by stating the label of the chosen item.
Result: Q
(Q: 113 nmol/mg/min, P: 62 nmol/mg/min)

----------
- Organism: Rattus norvegicus
- methodSummary: Ratio of Kcat to Km for rat glutaryl-co A dehydrogenase expressed in Escherichia coli BL21
measuredParameter: kcat/Km (×10⁻⁴ /µM/s)

CCCC/C=C/CC(=O)SCCNC(=O)CCNC(=O)C(O)C(C)(C)COP(=O)(O)OP(=O)(O)OC[C@H]1O[C@@H](n2cnc3c(N)ncnc32)[C@H](O)[C@@H]1OP(=O)(O)O (stereo not given in full); 7.1

(A) CCCCCC/C=C\CC(=O)SCCNC(=O)CCNC(=O)C(O)C(C)(C)COP(=O)(O)OP(=O)(O)OC[C@H]1O[C@@H](n2cnc3c(N)ncnc32)[C@H](O)[C@@H]1OP(=O)(O)O (stereo not given in full)
(B) CCCCCC/C=C/CC(=O)SCCNC(=O)CCNC(=O)C(O)C(C)(C)COP(=O)(O)OP(=O)(O)OC[C@H]1O[C@@H](n2cnc3c(N)ncnc32)[C@H](O)[C@@H]1OP(=O)(O)O (stereo not given in full)
Q: Pick the one with the larger kcat/Km: A vs B Answer by stating the label of the chosen item.
Result: A

----------
- Organism: Rattus norvegicus
- methodSummary: Ratio of Kcat to Km for rat glutaryl-co A dehydrogenase expressed in Escherichia coli BL21
measuredParameter: kcat/Km (10'-3/microM/s)

CC/C=C/CC(=O)SCCNC(=O)CCNC(=O)C(O)C(C)(C)COP(=O)(O)OP(=O)(O)OC[C@H]1O[C@@H](n2cnc3c(N)ncnc32)[C@H](O)[C@@H]1OP(=O)(O)O (some centres undefined); 1.9

(1) CC/C=C\CC(=O)SCCNC(=O)CCNC(=O)C(O)C(C)(C)COP(=O)(O)OP(=O)(O)OC[C@H]1O[C@@H](n2cnc3c(N)ncnc32)[C@H](O)[C@@H]1OP(=O)(O)O (some centres undefined)
(2) CCCC/C=C\CC(=O)SCCNC(=O)CCNC(=O)C(O)C(C)(C)COP(=O)(O)OP(=O)(O)OC[C@H]1O[C@@H](n2cnc3c(N)ncnc32)[C@H](O)[C@@H]1OP(=O)(O)O (some centres undefined)
(3) CCCCCCCCCC(=O)SCCNC(=O)CCNC(=O)C(O)C(C)(C)COP(=O)(O)OP(=O)(O)OC[C@H]1O[C@@H](n2cnc3c(N)ncnc32)[C@H](O)[C@@H]1OP(=O)(O)O (some centres undefined)
Q: Output the entries ranked by kcat/Km (10'-3/microM/s) from maximum down to minimum. Give the labels in the order specified.
Result: 1, 3, 2
(1: 4.9, 3: 3.3, 2: 1.3)

----------
- Species: Rattus norvegicus
- methodSummary: Activity of rat glutaryl-co A dehydrogenase expressed in Escherichia coli BL21
measuredParameter: kcat (s⁻¹)

CCCC(=O)SCCNC(=O)CCNC(=O)C(O)C(C)(C)COP(=O)(O)OP(=O)(O)OC[C@H]1O[C@@H](n2cnc3c(N)ncnc32)[C@H](O)[C@@H]1OP(=O)(O)O (stereo not given in full); 2.7
CC/C=C\CC(=O)SCCNC(=O)CCNC(=O)C(O)C(C)(C)COP(=O)(O)OP(=O)(O)OC[C@H]1O[C@@H](n2cnc3c(N)ncnc32)[C@H](O)[C@@H]1OP(=O)(O)O (stereo not given in full); 0.24
CCCCCC/C=C\CC(=O)SCCNC(=O)CCNC(=O)C(O)C(C)(C)COP(=O)(O)OP(=O)(O)OC[C@H]1O[C@@H](n2cnc3c(N)ncnc32)[C@H](O)[C@@H]1OP(=O)(O)O (stereo not given in full); 0.046

(I) CCCC/C=C\CC(=O)SCCNC(=O)CCNC(=O)C(O)C(C)(C)COP(=O)(O)OP(=O)(O)OC[C@H]1O[C@@H](n2cnc3c(N)ncnc32)[C@H](O)[C@@H]1OP(=O)(O)O (stereo not given in full)
(II) CCCCCCCC(=O)SCCNC(=O)CCNC(=O)C(O)C(C)(C)COP(=O)(O)OP(=O)(O)OC[C@H]1O[C@@H](n2cnc3c(N)ncnc32)[C@H](O)[C@@H]1OP(=O)(O)O (stereo not given in full)
Q: Identify the item whose kcat is the smaller number: I or II Answer by stating the label of the chosen item.
Result: I
